Reference for the values: PubChem BioAssay AID1688

# measurement-notes: qHTS Multiplex Assay to Identify Dual Action Probes in a Cell Model of Huntington: Aggregate Formation (GFP); also: nearly all actives have a fitted effect of over 60% in size
# test-context: PC12 HttQ103-GFP aggregates, Acumen cytometry, 40 h; series mostly up to 9.22 µM
The campaign covered roughly 220,000 compounds. About 2,400 (1.1%) were called active. Inconclusive results (about 7%) are left out. Calls follow the shape of the dose curve; as a rule, active = well fitted inhibition curve with a large enough effect; inconclusive = small, poorly fitted or top-dose-only effect, or effect the other way; inactive = no such curve, though single readings can be large or run the other way. Many of the other results were omitted from the sample, so actives are more common in it than they were.
Parameter call: string, one of active, inactive

q: Assay result, entry CCc1cc(CNC(=O)CC2C(=O)NCCN2Cc2ccccc2C(F)(F)F)on1 (configuration not stated) — outcome?
a: inactive

q: Assay result, entry CCOC(=O)N1CCN(C(=O)C2CCN(Cc3ccc(OC)cc3OC)CC2)CC1 — outcome?
a: inactive

q: Assay result, entry CCOC(=O)C1CCN(c2ncnc3c2oc2ccc(Br)cc23)CC1 — outcome?
a: inactive
